Source of measurements: patent US9822130B2

Each entry below carries its reported log10 EC50.
biological target: sGC α1/β1 heterodimer stably expressed in CHO-K1 cell line (CHO-K1/sGC) (Homo sapiens, UniProt Q02108+Q02153); construct: expressed in transfected cells; assay: Cell-based sGC Functional Assay (CASA Assay), cGMP generation; settings: CHO-K1/sGC cells, 1 hr at 37° C., cGMP by HTRF, 4P fit; presence or absence of 1 μM DETA-NO not given; read-out: IP (nM) (inflection point)
Sequence (Q02108 whole entry): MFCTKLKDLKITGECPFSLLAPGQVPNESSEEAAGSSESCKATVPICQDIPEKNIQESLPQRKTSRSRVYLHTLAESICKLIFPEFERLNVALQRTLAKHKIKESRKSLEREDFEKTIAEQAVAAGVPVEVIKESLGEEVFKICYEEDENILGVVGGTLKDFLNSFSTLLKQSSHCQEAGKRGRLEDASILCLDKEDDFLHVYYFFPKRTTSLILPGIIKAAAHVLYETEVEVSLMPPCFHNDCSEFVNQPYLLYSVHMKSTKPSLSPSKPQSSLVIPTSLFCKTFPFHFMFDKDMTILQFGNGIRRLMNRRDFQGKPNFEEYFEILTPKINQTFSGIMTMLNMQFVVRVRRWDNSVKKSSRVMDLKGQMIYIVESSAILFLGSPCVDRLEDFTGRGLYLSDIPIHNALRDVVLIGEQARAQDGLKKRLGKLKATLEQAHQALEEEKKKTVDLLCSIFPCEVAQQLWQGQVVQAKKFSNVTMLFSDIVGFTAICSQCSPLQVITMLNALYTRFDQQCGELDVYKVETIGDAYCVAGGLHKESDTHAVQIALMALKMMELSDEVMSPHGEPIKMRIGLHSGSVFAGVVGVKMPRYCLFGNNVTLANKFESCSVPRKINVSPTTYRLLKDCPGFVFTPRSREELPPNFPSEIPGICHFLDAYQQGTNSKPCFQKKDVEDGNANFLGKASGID
Sequence (Q02153 whole entry): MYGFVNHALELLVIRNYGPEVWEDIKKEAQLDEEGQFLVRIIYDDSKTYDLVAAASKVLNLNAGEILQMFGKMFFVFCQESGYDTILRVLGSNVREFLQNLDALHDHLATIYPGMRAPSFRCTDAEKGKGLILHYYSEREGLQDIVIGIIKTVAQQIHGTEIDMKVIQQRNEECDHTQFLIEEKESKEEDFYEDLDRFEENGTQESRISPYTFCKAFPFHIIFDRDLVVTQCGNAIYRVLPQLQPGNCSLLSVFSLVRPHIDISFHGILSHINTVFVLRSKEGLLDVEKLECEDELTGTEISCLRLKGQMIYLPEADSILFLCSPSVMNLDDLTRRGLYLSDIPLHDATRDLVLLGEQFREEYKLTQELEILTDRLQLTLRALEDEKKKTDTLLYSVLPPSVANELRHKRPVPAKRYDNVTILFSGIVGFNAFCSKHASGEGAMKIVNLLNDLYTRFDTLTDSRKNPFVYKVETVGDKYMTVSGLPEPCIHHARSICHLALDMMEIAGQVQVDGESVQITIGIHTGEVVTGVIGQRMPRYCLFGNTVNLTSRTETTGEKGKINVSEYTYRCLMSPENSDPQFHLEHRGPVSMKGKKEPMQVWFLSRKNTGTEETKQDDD
Each number you see is log10 of EC50, and the unit inside the log is nM.

| COMPOUND | log10 EC50 |
| --- | --- |
| CCCCc1nc(-c2nc(O)c3c(n2)NC(=O)C3(C)c2ccc(F)c(F)c2)cn2ncnc12 (stereo not shown) [Example 158B] | 2.01 |
| CC(C)n1cc(C2(C)C(=O)Nc3nc(-c4cn5ncnc5c(CCC(F)(F)C(F)(F)F)n4)nc(N)c32)nn1 (stereo not shown) [Example 20A] | 2.25 |
| CC1(c2ccc(F)c(Cl)c2)C(=O)Nc2nc(-c3cn4ncnc4c(CCCC(F)(F)F)n3)nc(O)c21 (stereo not shown) [Example 147B] | 2.33 |
| CC1(c2ccc(Cl)c(F)c2)C(=O)Nc2nc(-c3cn4ncnc4c(CCC(F)(F)F)n3)nc(N)c21 (stereo not shown) [Example 75B] | 1.30 |
| CC1(c2ccc(F)c(F)c2)C(=O)Nc2nc(-c3cn4ncnc4c(CCCC(F)(F)F)n3)nc(N)c21 (stereo not shown) [Example 38B] | 1.04 |
| CC1(c2ccc(C3CC3)nc2)C(=O)Nc2nc(-c3cn4ncnc4c(CCC(F)(F)C(F)(F)F)n3)nc(N)c21 (stereo not shown) [Example 13B] | 1.91 |

q: What does the data say about its log10 EC50? Entry: CC1(c2ccc(Cl)cn2)C(=O)Nc2nc(-c3cn4ncnc4c(CCC(F)(F)C(F)(F)F)n3)nc(N)c21 (stereo not shown) [Example 3A]
a: 1.61
